System: NCI-H226
assayMethodText: Growth inhibition of human NCI-H226 cells assessed as cell growth at 10^-5 M incubated for 48 hrs by sulforhodamine B assay relative to control
Assay type: functional
measurementConditions: NCI-H226, 48 h, read-out: Activity
measuredQuantity: growth at 10 µM
# number then unit; no other words

As a guide, the following entries are already answered.
* c1ccc2[nH]c(-c3ccc(C4NCCc5c4[nH]c4ccccc54)cc3)nc2c1 (stereo unspecified) | 93.5%
* Cc1ccc(S(=O)(=O)N2CCc3c([nH]c4ccccc34)C2c2ccc(C=O)cc2)cc1 (stereo unspecified) | 86.4%
* c1ccc2c(c1)[nH]c1c(-c3ccc(-c4nccc5c4[nH]c4ccccc45)cc3)nccc12 | 90.7%
* Cc1n[nH]c2c1C(c1ccc(C3NCCc4c3[nH]c3ccccc43)cc1)C(C#N)=C(N)O2 (stereo unspecified) | 87%
* O=Cc1ccc(C2NCCc3c2[nH]c2ccccc32)cc1 (stereo unspecified) | 78.2%

Shift focus to the following entry.
I looked up Cc1ccc(S(=O)(=O)N2CCc3c([nH]c4ccccc34)C2c2ccc(-c3nc4ccccc4[nH]3)cc2)cc1 (stereo unspecified) and its growth at 10 µM for NCI-H226 was 86.4%

---

Give measured growth at 10 µM for each item. Keep answers brief.
Test system: TK-10
assayMethodText: Growth inhibition of human TK10 cells assessed as cell growth at 10^-5 M incubated for 48 hrs by sulforhodamine B assay relative to control
Type: functional
measurementConditions: TK-10, 48 h, read-out: Activity
Numbers only, in %.

# count of solved cases: 5
* Cc1n[nH]c2c1C(c1ccc(C3NCCc4c3[nH]c3ccccc43)cc1)C(C#N)=C(N)O2 (stereo unspecified) | 101
* Cc1ccc(S(=O)(=O)N2CCc3c([nH]c4ccccc34)C2c2ccc(-c3nc4ccccc4[nH]3)cc2)cc1 (stereo unspecified) | 98
* O=Cc1ccc(C2NCCc3c2[nH]c2ccccc32)cc1 (stereo unspecified) | 115
* c1ccc2c(c1)[nH]c1c(-c3ccc(-c4nccc5c4[nH]c4ccccc45)cc3)nccc12 | 105
* Cc1ccc(S(=O)(=O)N2CCc3c([nH]c4ccccc34)C2c2ccc(C=O)cc2)cc1 (stereo unspecified) | 98

Record c1ccc2[nH]c(-c3ccc(C4NCCc5c4[nH]c4ccccc54)cc3)nc2c1 (stereo unspecified) . Reported growth at 10 µM: 94.6

---

For each record, write down the corresponding growth at 10 µM.
System: EKVX
assayMethodText: Growth inhibition of human EKVX cells assessed as cell growth at 10^-5 M incubated for 48 hrs by sulforhodamine B assay relative to control
Format: functional
measurementConditions: read-out: Activity

Take a look at these entries with their results.
• c1ccc2[nH]c(-c3ccc(-c4nccc5c4[nH]c4ccccc45)cc3)nc2c1 = 13 to 81.2%
• c1ccc2c(c1)[nH]c1c(-c3ccc(-c4nccc5c4[nH]c4ccccc45)cc3)nccc12 = 89.5%
• c1ccc2[nH]c(-c3ccc(C4NCCc5c4[nH]c4ccccc54)cc3)nc2c1 (stereo unspecified) = 103%
• Cc1n[nH]c2c1C(c1ccc(C3NCCc4c3[nH]c3ccccc43)cc1)C(C#N)=C(N)O2 (stereo unspecified) = 83.6%
• Cc1ccc(S(=O)(=O)N2CCc3c([nH]c4ccccc34)C2c2ccc(C=O)cc2)cc1 (stereo unspecified) = 87.4%

# compound O=Cc1ccc(C2NCCc3c2[nH]c2ccccc32)cc1 (stereo unspecified) ; its growth at 10 µM = 89.6%
